Reported %-inhibition of PKR by item:
# Measured On: panel of more than 300 wild-type and mutant kinases (313 kinase panel) (Homo sapiens)
# Protocol Details: Kinase profiling in a biochemical assay panel (mobility shift assays and ELISA), %-inhibition at 1 μM; selectivity entropy
# Protocol Conditions: kinase PKR; 1 μM
Response body: numeric value in %, unit text excluded.

# Compound Structure, Output Unit, %-inhibition of PKR
rows = [
    ("C[C@@H](Oc1cc(-c2cnn(C3CCNCC3)c2)cnc1N)c1c(Cl)ccc(F)c1Cl", "%", 6),
    ("N#CC[C@H](C1CCCC1)n1cc(-c2ncnc3[nH]ccc23)cn1", "%", -6),
]

Return reported %-inhibition of PKR; argument: CO[C@H]1C[C@@H]2CC[C@@H](C)[C@@](O)(O2)C(=O)C(=O)N2CCCC[C@H]2C(=O)O[C@H]([C@H](C)C[C@@H]2CC[C@@H](OCCO)[C@H](OC)C2)CC(=O)[C@H](C)/C=C(\C)[C@@H](O)[C@@H](OC)C(=O)[C@H](C)C[C@H](C)/C=C/C=C/C=C/1C -8.45

----------
# Measured On: panel of more than 300 wild-type and mutant kinases (313 kinase panel) (Homo sapiens)
# Protocol Details: Kinase profiling in a biochemical assay panel (mobility shift assays and ELISA), %-inhibition at 1 μM; selectivity entropy
# Protocol Conditions: kinase JNK2; compound at 1 μM
Assay Endpoint: %-inhibition of JNK2 (%)
Response body: numeric value in %, unit text excluded.

# Molecule, Measured On, Output Unit, %-inhibition of JNK2
data = [
    ("COc1cc2nccc(Oc3ccc(NC(=O)C4(C(=O)Nc5ccc(F)cc5)CC4)cc3)c2cc1OC [cabozantinib]", "panel of more than 300 wild-type and mutant kinases (313 kinase panel) (Homo sapiens)", "%", 4),
    ("COc1cc2c(Nc3ccc(Br)cc3F)ncnc2cc1OCC1CCN(C)CC1", "panel of more than 300 wild-type and mutant kinases (313 kinase panel) (Homo sapiens)", "%", -4),
    ("C[C@@H](Oc1cc(-c2cnn(C3CCNCC3)c2)cnc1N)c1c(Cl)ccc(F)c1Cl", "panel of more than 300 wild-type and mutant kinases (313 kinase panel) (Homo sapiens)", "%", -2.59),
]

Give recorded %-inhibition of JNK2 with panel of more than 300 wild-type and mutant kinases (313 kinase panel) (Homo sapiens) for the following molecule: N#CC[C@H](C1CCCC1)n1cc(-c2ncnc3[nH]ccc23)cn1 -6

----------
# Measured On: panel of more than 300 wild-type and mutant kinases (313 kinase panel) (Homo sapiens)
# Protocol Details: Kinase profiling in a biochemical assay panel (mobility shift assays and ELISA), %-inhibition at 1 μM; selectivity entropy
# Protocol Conditions: kinase MAP2K3; compound at 1 μM
Returns one of 1.0 or 0.0; 1.0 when %-inhibition of MAP2K3 is >= 10%.

Consider the worked cases shown below.
# Compound Structure, Measured On, Classification
measured = [
    ("O=S(=O)(c1cccc2cnccc12)N1CCCNCC1", "panel of more than 300 wild-type and mutant kinases (313 kinase panel) (Homo sapiens)", 0.0),
    ("C[C@@H](Oc1cc(-c2cnn(C3CCNCC3)c2)cnc1N)c1c(Cl)ccc(F)c1Cl", "panel of more than 300 wild-type and mutant kinases (313 kinase panel) (Homo sapiens)", 1.0),
    ("Cc1nc(Nc2ncc(C(=O)Nc3c(C)cccc3Cl)s2)cc(N2CCN(CCO)CC2)n1", "panel of more than 300 wild-type and mutant kinases (313 kinase panel) (Homo sapiens)", 1.0),
]

# next molecule below
Can COc1cc2c(Nc3ccc(Br)cc3F)ncnc2cc1OCC1CCN(C)CC1 be said to have %-inhibition of MAP2K3 at or above 10%? 1.0

----------
Reported %-inhibition of IGF1R by item:
# Measured On: panel of more than 300 wild-type and mutant kinases (313 kinase panel) (Homo sapiens, UniProt P08069)
# Protocol Details: Kinase profiling in a biochemical assay panel (mobility shift assays and ELISA), %-inhibition at 1 μM; selectivity entropy
# Protocol Conditions: kinase IGF1R; compound at 1 μM
Response body: numeric value in %, unit text excluded.

Example entries begin here.
# Compound, %-inhibition of IGF1R (%)
rows = [
    ("CCCS(=O)(=O)Nc1ccc(F)c(C(=O)c2c[nH]c3ncc(-c4ccc(Cl)cc4)cc23)c1F", 10),
    ("CC(=O)Nc1cccc(-n2c(=O)n(C3CC3)c(=O)c3c(Nc4ccc(I)cc4F)n(C)c(=O)c(C)c32)c1", -10),
    ("COc1cc2nccc(Oc3ccc(NC(=O)C4(C(=O)Nc5ccc(F)cc5)CC4)cc3)c2cc1OC [cabozantinib]", 11),
    ("CS(=O)(=O)CCNCc1ccc(-c2ccc3ncnc(Nc4ccc(OCc5cccc(F)c5)c(Cl)c4)c3c2)o1", 3.73),
    ("O=S(=O)(c1cccc2cnccc12)N1CCCNCC1", -13),
    ("Cc1cn(-c2cc(NC(=O)c3ccc(C)c(Nc4nccc(-c5cccnc5)n4)c3)cc(C(F)(F)F)c2)cn1", -11),
    ("COc1cc2c(Nc3ccc(Br)cc3F)ncnc2cc1OCC1CCN(C)CC1", -1.72),
]

Turning now to a further compound:
Return reported %-inhibition of IGF1R; argument: CNC(=O)c1cc(Oc2ccc(NC(=O)Nc3ccc(Cl)c(C(F)(F)F)c3)c(F)c2)ccn1 -1.72

----------
Reported %-inhibition, AMPKα2/β1/γ1 by item:
# Measured On: panel of more than 300 wild-type and mutant kinases (313 kinase panel) (Homo sapiens)
# Protocol Details: Kinase profiling in a biochemical assay panel (mobility shift assays and ELISA), %-inhibition at 1 μM; selectivity entropy
# Protocol Conditions: kinase AMPKα2/β1/γ1; 1 μM compound
Response body: numeric value in %, unit text excluded.

Example entries begin here.
# Compound Structure, Assay Endpoint, Output Unit, Measured Value
data = [
    ("CO[C@H]1C[C@@H]2CC[C@@H](C)[C@@](O)(O2)C(=O)C(=O)N2CCCC[C@H]2C(=O)O[C@H]([C@H](C)C[C@@H]2CC[C@@H](OCCO)[C@H](OC)C2)CC(=O)[C@H](C)/C=C(\\C)[C@@H](O)[C@@H](OC)C(=O)[C@H](C)C[C@H](C)/C=C/C=C/C=C/1C", "%-inhibition, AMPKα2/β1/γ1", "%", -6),
    ("COc1cc2c(Nc3ccc(Br)cc3F)ncnc2cc1OCC1CCN(C)CC1", "%-inhibition, AMPKα2/β1/γ1", "%", 4.74),
]

Turning now to a further compound:
Return reported %-inhibition, AMPKα2/β1/γ1; argument: COc1cc(Nc2c(C#N)cnc3cc(OCCCN4CCN(C)CC4)c(OC)cc23)c(Cl)cc1Cl 10

----------
# Measured On: panel of more than 300 wild-type and mutant kinases (313 kinase panel) (Homo sapiens)
# Protocol Details: Kinase profiling in a biochemical assay panel (mobility shift assays and ELISA), %-inhibition at 1 μM; selectivity entropy
# Protocol Conditions: kinase MAPKAPK2; compound at 1 μM
Assay Endpoint: %-inhibition of MAPKAPK2 (%)
Response body: numeric value in %, unit text excluded.

Example entries begin here.
# Compound Structure, Measured Value
records = [
    ("CO[C@H]1C[C@@H]2CC[C@@H](C)[C@@](O)(O2)C(=O)C(=O)N2CCCC[C@H]2C(=O)O[C@H]([C@H](C)C[C@@H]2CC[C@@H](OC(=O)C(C)(CO)CO)[C@H](OC)C2)CC(=O)[C@H](C)/C=C(\\C)[C@@H](O)[C@@H](OC)C(=O)[C@H](C)C[C@H](C)/C=C/C=C/C=C/1C", -17),
    ("N#CC[C@H](C1CCCC1)n1cc(-c2ncnc3[nH]ccc23)cn1", -18),
    ("CC(=O)Nc1cccc(-n2c(=O)n(C3CC3)c(=O)c3c(Nc4ccc(I)cc4F)n(C)c(=O)c(C)c32)c1", -0.335),
    ("CCCS(=O)(=O)Nc1ccc(F)c(C(=O)c2c[nH]c3ncc(-c4ccc(Cl)cc4)cc23)c1F", -16),
    ("COc1cc2c(Nc3ccc(Br)cc3F)ncnc2cc1OCC1CCN(C)CC1", -20),
]

Turning now to a further compound:
Return reported %-inhibition of MAPKAPK2; argument: Cc1cn(-c2cc(NC(=O)c3ccc(C)c(Nc4nccc(-c5cccnc5)n4)c3)cc(C(F)(F)F)c2)cn1 2.56

----------
# Tested on: forty-four human cancer cell lines
# Protocol Details: Cell proliferation assay (ATPlite, 72 hours) in the 44 cell line Oncolines panel
# Format: cell-based
# Protocol Conditions: Homo sapiens, C-33-A, cell line C-33 A; read-out: cell panel IC50, C-33 A
Assay Endpoint: pIC50
The read-out pIC50 is expressed as -log10 of concentration in moles per litre.

# Compound Structure, pIC50
records = [
    ("CC[C@]1(O)C[C@H]2CN(CCc3c([nH]c4ccccc34)[C@@](C(=O)OC)(c3cc4c(cc3OC)N(C=O)[C@H]3[C@@](O)(C(=O)OC)[C@H](OC(C)=O)[C@]5(CC)C=CCN6CC[C@]43[C@@H]65)C2)C1", 8.40),
    ("CC(=O)O[C@@]12CO[C@@H]1C[C@H](O)[C@@]1(C)C(=O)[C@H](O)C3=C(C)[C@@H](OC(=O)[C@H](O)[C@@H](NC(=O)OC(C)(C)C)c4ccccc4)C[C@@](O)([C@@H](OC(=O)c4ccccc4)[C@H]21)C3(C)C", 8.55),
    ("CC(C)C[C@H](NC(=O)[C@H](Cc1ccccc1)NC(=O)c1cnccn1)B(O)O", 7.85),
]

Return reported pIC50; argument: O=c1[nH]cc(F)c(=O)[nH]1 5.34
